# targetOrTestSystem: X-box-binding protein 1 (Homo sapiens) (UniProt P17861)
# assayProcedure: XBP1 reporter suppression in cells – counter-screen, dose response (AID 504313);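 note: CHO cells carrying an XBP1 reporter stimulated with tunicamycin; potency is for inhibition of the tunicamycin-induced reporter signal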
# experimentalConditions: XBP1 reporter cell assay, percent of control
Active and inactive are the calls of the source. The rule behind the calls is not given here.
metricName: IC50

Please review the entries below; each comes with its answer.
Cc1ccccc1Oc1cc(-n2ncc(Cl)c(Cl)c2=O)ncn1 ... 1.75 µM
CCOC(=O)c1sc(N=Nc2c(O)[nH]c(=O)[nH]c2=O)c(C(=O)OCC)c1C ... > 10 µM (inactive)
O=C(/C=C/Sc1ncn[nH]1)c1ccc(Cl)cc1 ... inactive
CN(C)c1ccc(/C=C/c2ccc3c4ccccc4ccc3[n+]2-c2ccccc2)cc1 ... 2.28 µM
CN(CCCC[C@H](CNCc1ccc(-c2ccccc2)cc1)N1C[C@H](c2ccccc2)N(CCc2ccc(Cl)c(Cl)c2)C(=O)C1=O)Cc1ccc(-c2ccccc2)cc1 ... inactive

(Q) Quick check: IC50 of `FC(F)(F)c1cccc(NC(=S)N2CCN(c3cccc(C(F)(F)F)c3)CC2)c1` ?
(A) 4.52 µM

(Q) Another molecule to check: `CCN1/C(=C/C(C)=C/c2sc3ccccc3[n+]2CC)Sc2ccccc21`
(A) > 10 µM (inactive)

(Q) Another molecule to check: `CCOc1cc(/C=N/NC(=O)COc2cccc(C)c2)ccc1OC(=O)c1cccs1`
(A) > 10 µM (inactive)

(Q) Another molecule to check: C/C(N)=C(/C#N)C(=O)COC(=O)C1CCC(C(C)(C)C)CC1 (stereo not given)
(A) > 10 µM (inactive)

(Q) Another molecule to check: `O=S1(=O)C=C(Sc2nc3cc(Cl)ccc3o2)c2ccccc21`
(A) 4.42 µM
